Origin of the recorded values: paper PMC7198601

Assayed target: α5β1 integrin (Homo sapiens, UniProt P05556+P08648)
Sequence (P08648 42-894 limits assumed): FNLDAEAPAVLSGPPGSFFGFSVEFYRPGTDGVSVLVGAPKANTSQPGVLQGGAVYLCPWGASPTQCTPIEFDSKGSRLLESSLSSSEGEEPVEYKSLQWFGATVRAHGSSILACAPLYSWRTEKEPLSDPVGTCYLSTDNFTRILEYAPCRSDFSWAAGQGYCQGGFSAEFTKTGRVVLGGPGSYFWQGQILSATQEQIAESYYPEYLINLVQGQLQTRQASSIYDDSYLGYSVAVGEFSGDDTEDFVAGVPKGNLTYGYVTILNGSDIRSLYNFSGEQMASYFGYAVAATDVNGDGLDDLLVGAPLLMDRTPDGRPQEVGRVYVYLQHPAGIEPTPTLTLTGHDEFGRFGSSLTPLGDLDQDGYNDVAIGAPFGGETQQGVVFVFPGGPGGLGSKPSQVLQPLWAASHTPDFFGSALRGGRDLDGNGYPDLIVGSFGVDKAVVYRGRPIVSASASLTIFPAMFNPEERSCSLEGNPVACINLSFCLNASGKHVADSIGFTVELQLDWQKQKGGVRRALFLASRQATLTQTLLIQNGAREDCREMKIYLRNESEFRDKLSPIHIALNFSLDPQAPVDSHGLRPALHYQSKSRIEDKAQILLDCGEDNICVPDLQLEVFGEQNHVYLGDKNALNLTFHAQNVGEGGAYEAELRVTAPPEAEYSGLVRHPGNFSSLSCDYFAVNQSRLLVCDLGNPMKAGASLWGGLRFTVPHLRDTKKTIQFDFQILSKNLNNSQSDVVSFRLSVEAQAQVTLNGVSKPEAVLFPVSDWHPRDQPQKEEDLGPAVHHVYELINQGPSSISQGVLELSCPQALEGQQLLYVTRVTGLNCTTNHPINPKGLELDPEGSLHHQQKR
Sequence (P08648 895-1049 partner limits assumed): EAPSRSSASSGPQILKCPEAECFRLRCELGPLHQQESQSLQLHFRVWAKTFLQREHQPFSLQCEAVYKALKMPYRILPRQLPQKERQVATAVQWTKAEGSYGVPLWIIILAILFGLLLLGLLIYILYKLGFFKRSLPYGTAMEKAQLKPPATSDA
Sequence (P05556 21-798): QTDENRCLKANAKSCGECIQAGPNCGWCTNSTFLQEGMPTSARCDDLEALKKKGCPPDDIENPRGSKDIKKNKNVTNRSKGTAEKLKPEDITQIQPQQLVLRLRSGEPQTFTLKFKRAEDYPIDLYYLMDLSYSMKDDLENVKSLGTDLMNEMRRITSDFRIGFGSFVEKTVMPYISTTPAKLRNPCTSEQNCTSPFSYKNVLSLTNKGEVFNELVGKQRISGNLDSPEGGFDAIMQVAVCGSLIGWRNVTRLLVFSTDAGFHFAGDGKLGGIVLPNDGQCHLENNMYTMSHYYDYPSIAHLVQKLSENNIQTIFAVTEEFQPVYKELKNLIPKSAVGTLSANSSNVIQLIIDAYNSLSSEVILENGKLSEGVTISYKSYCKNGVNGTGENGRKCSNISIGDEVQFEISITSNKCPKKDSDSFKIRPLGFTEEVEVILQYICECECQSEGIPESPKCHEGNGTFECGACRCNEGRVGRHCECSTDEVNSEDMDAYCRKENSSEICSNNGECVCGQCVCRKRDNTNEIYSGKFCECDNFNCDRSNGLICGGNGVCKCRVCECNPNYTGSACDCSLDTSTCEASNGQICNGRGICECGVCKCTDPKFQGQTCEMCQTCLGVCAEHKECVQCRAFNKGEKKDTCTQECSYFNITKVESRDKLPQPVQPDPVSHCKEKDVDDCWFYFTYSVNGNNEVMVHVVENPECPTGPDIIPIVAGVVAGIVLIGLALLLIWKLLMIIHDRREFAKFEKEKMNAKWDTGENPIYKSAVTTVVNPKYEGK
Run description: Cell adhesion assay: K562 cells to immobilized fibronectin (α5β1 integrin-mediated)
Attribute measured: pIC50
As a rule, pIC50 stands for the negative log10 of the concentration, concentration in M.

[[record]]
compound = "CC1=C(C(=O)NCc2ccc(N)cc2)C(CCCc2cn(CCCNC(=S)Nc3ccc(-c4c5ccc(=O)cc-5oc5cc(O)ccc45)c(C(=O)O)c3)nn2)N(C(=O)CC(=O)O)O1 (centres unmarked)"
assayed_target = "α5β1 integrin (Homo sapiens, UniProt P05556+P08648)"
attribute_measured = "pIC50"
assay_value = 6.89


Next compound, please.
# input What value of pIC50 has been reported for the following compound? CC1=C(C(=O)NCc2ccc(N)cc2)C(CCCc2cn(CCNC(=O)OC(C)(C)C)nn2)N(C(=O)CC(=O)O)O1 (centres unmarked) [Compound 17a]
# output 6.55
